- test_system: ALDH2*1/*1 (Homo sapiens)
- Construct: His-tag (N); made in house; host or cells: E. coli BL21 (pTrcHis vector)
- experimental_protocol: ALDH2 enzymatic activity, NADH accumulation at 340 nm, acetaldehyde substrate, wild type
- Assay type: biochemical
- setup_conditions: 2.5 μM compound; relative to baseline enzymatic activity (100%)
Examples of compounds with documented activity at 2.5 µM follow.
quantity_measured: activity at 2.5 µM (%)

[[record]]
smiles_entry = "COc1ccc(CNC(=O)c2cc(-c3ccc(F)cc3CO)cnc2OCC2CC2)cc1F"
endpoint_value = 204

[[record]]
smiles_entry = "COc1ccc(CNC(=O)c2cc(-c3sccc3CO)ccc2OCC2CC2)cc1F"
endpoint_value = 197

[[record]]
smiles_entry = "COc1ccc(CNC(=O)c2cc(-c3cccc(F)c3CO)ccc2OCC2CC2)cc1F"
endpoint_value = 161

[[record]]
smiles_entry = "COc1ccc(CNC(=O)c2cc(-c3cc(F)ccc3CO)cnc2OCC2CC2)cc1F"
endpoint_value = 170

[[record]]
smiles_entry = "COc1ccc(CNC(=O)c2cc(-c3c(CO)cccc3N(C)C)ccc2OCC2CC2)cc1F"
endpoint_value = 106

[[record]]
smiles_entry = "COc1ccc(CNC(=O)c2cc(-c3ccncc3CO)cnc2OCC2CC2)cc1F"
endpoint_value = 166

[[record]]
smiles_entry = "COc1ccc(CNC(=O)c2cc(-c3ccsc3CO)cnc2OCC2CC2)cc1F"
endpoint_value = 273

[[record]]
smiles_entry = "COc1ccc(CNC(=O)c2cc(-c3ncccc3CO)cnc2OCC2CC2)cc1F"
endpoint_value = 164


====

- test_system: ALDH2*1/*2 (Homo sapiens, UniProt P05091, E504K)
- Construct: His-tag; made in house; host or cells: E. coli BL21 (pETDuet-1 co-expression)
- Sequence (P05091 18-517, stated change not applied): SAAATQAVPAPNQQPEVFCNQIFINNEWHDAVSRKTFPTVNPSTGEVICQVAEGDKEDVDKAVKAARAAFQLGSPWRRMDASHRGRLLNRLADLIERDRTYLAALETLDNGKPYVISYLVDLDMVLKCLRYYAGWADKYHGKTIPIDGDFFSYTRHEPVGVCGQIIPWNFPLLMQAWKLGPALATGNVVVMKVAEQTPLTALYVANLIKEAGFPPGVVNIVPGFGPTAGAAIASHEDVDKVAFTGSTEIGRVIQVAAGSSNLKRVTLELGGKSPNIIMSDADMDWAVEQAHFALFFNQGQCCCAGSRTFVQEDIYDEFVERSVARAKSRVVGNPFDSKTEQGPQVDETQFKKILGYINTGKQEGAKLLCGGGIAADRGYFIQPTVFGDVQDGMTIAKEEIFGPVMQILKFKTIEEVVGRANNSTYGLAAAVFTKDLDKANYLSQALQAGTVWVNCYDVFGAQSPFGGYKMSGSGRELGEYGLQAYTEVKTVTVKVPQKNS
- Sequence (P05091 18-517 E504K): as the sequence (P05091 18-517, stated change not applied) above, with E487K counted along it
- experimental_protocol: ALDH2 enzymatic activity, NADH accumulation at 340 nm, acetaldehyde substrate, heterozygous form
- Format: biochemical
- setup_conditions: 2.5 μM compound; relative to baseline enzymatic activity (100%)
Overview of reported activity at 2.5 µM across a group of compounds:
quantity_measured: activity at 2.5 µM (%)

[[record]]
smiles_entry = "COc1ccc(CNC(=O)c2cc(-c3cc(F)ccc3CO)ccc2OCC2CC2)cc1F"
test_system = "ALDH2*1/*2 (Homo sapiens, UniProt P05091, E504K)"
quantity_measured = "activity at 2.5 µM"
endpoint_value = 156

[[record]]
smiles_entry = "COc1ccc(CNC(=O)c2cc(-c3sccc3CO)cnc2OCC2CC2)cc1F"
test_system = "ALDH2*1/*2 (Homo sapiens, UniProt P05091, E504K)"
quantity_measured = "activity at 2.5 µM"
endpoint_value = 188

[[record]]
smiles_entry = "COc1ccc(CNC(=O)c2cc(-c3ccc(F)cc3CO)ccc2OCC2CC2)cc1F"
test_system = "ALDH2*1/*2 (Homo sapiens, UniProt P05091, E504K)"
quantity_measured = "activity at 2.5 µM"
endpoint_value = 187

[[record]]
smiles_entry = "COc1ccc(CNC(=O)c2cc(-c3cccc(F)c3CO)cnc2OCC2CC2)cc1F"
test_system = "ALDH2*1/*2 (Homo sapiens, UniProt P05091, E504K)"
quantity_measured = "activity at 2.5 µM"
endpoint_value = 127

[[record]]
smiles_entry = "COc1ccc(CNC(=O)c2cc(-c3ccsc3CO)cnc2OCC2CC2)cc1F"
test_system = "ALDH2*1/*2 (Homo sapiens, UniProt P05091, E504K)"
quantity_measured = "activity at 2.5 µM"
endpoint_value = 267

[[record]]
smiles_entry = "COc1ccc(CNC(=O)c2cc(-c3cnccc3CO)ccc2OCC2CC2)cc1F"
test_system = "ALDH2*1/*2 (Homo sapiens, UniProt P05091, E504K)"
quantity_measured = "activity at 2.5 µM"
endpoint_value = 318

[[record]]
smiles_entry = "COc1ccc(CNC(=O)c2cc(-c3cccnc3CO)ccc2OCC2CC2)cc1F"
test_system = "ALDH2*1/*2 (Homo sapiens, UniProt P05091, E504K)"
quantity_measured = "activity at 2.5 µM"
endpoint_value = 176

[[record]]
smiles_entry = "COc1ccc(CNC(=O)c2cc(-c3ccccc3CO)ccc2OCC2CC2)cc1F"
test_system = "ALDH2*1/*2 (Homo sapiens, UniProt P05091, E504K)"
quantity_measured = "activity at 2.5 µM"
endpoint_value = 256

[[record]]
smiles_entry = "COc1ccc(CNC(=O)c2cc(-c3ncccc3CO)ccc2OCC2CC2)cc1F"
test_system = "ALDH2*1/*2 (Homo sapiens, UniProt P05091, E504K)"
quantity_measured = "activity at 2.5 µM"
endpoint_value = 202

[[record]]
smiles_entry = "COc1ccc(CNC(=O)c2cc(-c3cc(F)ccc3CO)cnc2OCC2CC2)cc1F"
test_system = "ALDH2*1/*2 (Homo sapiens, UniProt P05091, E504K)"
quantity_measured = "activity at 2.5 µM"
endpoint_value = 157

[[record]]
smiles_entry = "COc1ccc(CNC(=O)c2cc(-c3c[n+]([O-])ccc3CO)ccc2OCC2CC2)cc1F"
test_system = "ALDH2*1/*2 (Homo sapiens, UniProt P05091, E504K)"
quantity_measured = "activity at 2.5 µM"
endpoint_value = 146

[[record]]
smiles_entry = "COc1ccc(CNC(=O)c2cc(-c3ccc(F)cc3CO)cnc2OCC2CC2)cc1F"
test_system = "ALDH2*1/*2 (Homo sapiens, UniProt P05091, E504K)"
quantity_measured = "activity at 2.5 µM"
endpoint_value = 266

[[record]]
smiles_entry = "COc1ccc(CNC(=O)c2cc(-c3ccccc3CO)ncc2OCC2CC2)cc1F"
test_system = "ALDH2*1/*2 (Homo sapiens, UniProt P05091, E504K)"
quantity_measured = "activity at 2.5 µM"
endpoint_value = 180

[[record]]
smiles_entry = "COc1ccc(CNC(=O)c2cc(-c3cscc3CO)ccc2OCC2CC2)cc1F"
test_system = "ALDH2*1/*2 (Homo sapiens, UniProt P05091, E504K)"
quantity_measured = "activity at 2.5 µM"
endpoint_value = 260

[[record]]
smiles_entry = "COc1ccc(CNC(=O)c2cc(-c3sccc3CO)ccc2OCC2CC2)cc1F"
test_system = "ALDH2*1/*2 (Homo sapiens, UniProt P05091, E504K)"
quantity_measured = "activity at 2.5 µM"
endpoint_value = 201

[[record]]
smiles_entry = "COc1ccc(CNC(=O)c2cc(-c3cscc3CO)cnc2OCC2CC2)cc1F"
test_system = "ALDH2*1/*2 (Homo sapiens, UniProt P05091, E504K)"
quantity_measured = "activity at 2.5 µM"
endpoint_value = 149

